systemTested: T1, GPC3 endogenously expressed on HepG2 cells (UniProt P51654 25-554)
T1 construct: whole, on cells
protocolDescription: FACS on HepG2 cells;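 also: flow cytometric binding of chimeric antibodies to cells, read as mean fluorescence intensity, EC50 obtained by curve fitting of the MFI data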
propertyLabel: EC50 (nM)
Field format: number, assumed nM, no unit text.

Please review the entries below; each comes with its answer.
binder | valueMeasured
F4.18.4 human-murine chimeric antibody (antibody, human IgG1, kappa, V domains shown) VH: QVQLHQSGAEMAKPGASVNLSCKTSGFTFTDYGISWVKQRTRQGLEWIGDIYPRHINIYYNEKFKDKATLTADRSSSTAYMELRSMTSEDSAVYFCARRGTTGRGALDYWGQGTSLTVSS VL: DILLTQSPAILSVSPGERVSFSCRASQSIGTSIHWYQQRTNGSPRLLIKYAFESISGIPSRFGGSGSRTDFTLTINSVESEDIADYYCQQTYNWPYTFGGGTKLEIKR | 0.92
F1.153.1 human-murine chimeric antibody (antibody, human IgG1, kappa, V domains shown) VH: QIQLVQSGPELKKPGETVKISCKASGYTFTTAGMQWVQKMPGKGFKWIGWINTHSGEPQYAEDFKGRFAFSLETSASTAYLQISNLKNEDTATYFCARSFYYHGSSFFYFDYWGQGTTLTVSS VL: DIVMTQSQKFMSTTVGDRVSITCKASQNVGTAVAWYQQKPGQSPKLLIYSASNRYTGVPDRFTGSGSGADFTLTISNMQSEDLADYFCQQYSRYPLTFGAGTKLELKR | 1.3

Given the entry F1.120.16 human-murine chimeric antibody (antibody, human IgG1, kappa, V domains shown) VH: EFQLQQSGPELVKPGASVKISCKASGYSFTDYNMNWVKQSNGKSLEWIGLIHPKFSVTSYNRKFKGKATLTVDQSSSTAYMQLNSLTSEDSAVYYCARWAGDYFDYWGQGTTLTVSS VL: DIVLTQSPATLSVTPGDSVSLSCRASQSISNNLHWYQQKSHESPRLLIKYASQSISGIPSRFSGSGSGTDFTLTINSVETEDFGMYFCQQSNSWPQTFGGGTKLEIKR , report its measured EC50. 0.38

Given the entry F1.2.14 human-murine chimeric antibody (antibody, human IgG1, kappa, V domains shown) VH: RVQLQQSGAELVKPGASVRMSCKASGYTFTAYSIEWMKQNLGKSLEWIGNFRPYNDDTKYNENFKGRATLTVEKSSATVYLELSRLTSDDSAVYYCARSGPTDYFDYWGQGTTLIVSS VL: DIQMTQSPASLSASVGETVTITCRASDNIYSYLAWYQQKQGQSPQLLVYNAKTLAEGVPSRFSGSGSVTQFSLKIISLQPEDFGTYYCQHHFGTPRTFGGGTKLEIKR , report its measured EC50. 2.13

Given the entry F1.21.8 human-murine chimeric antibody (antibody, human IgG1, kappa, V domains shown) VH: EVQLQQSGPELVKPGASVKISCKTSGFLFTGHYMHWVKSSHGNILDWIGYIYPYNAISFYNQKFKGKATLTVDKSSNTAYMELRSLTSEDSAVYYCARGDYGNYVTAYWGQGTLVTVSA VL: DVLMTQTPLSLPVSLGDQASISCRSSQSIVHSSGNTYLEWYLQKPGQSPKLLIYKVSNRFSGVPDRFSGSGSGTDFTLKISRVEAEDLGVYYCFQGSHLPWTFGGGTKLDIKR , report its measured EC50. 0.36
